# target_or_test_system: EGFR mutant L858R (Homo sapiens, UniProt P00533, L858R)
# Construct: truncated human JAK3, EGFR mutants such as del E746-A750; purchased Carna Biosciences
# Sequence (P00533 669-1210 L858R limits assumed): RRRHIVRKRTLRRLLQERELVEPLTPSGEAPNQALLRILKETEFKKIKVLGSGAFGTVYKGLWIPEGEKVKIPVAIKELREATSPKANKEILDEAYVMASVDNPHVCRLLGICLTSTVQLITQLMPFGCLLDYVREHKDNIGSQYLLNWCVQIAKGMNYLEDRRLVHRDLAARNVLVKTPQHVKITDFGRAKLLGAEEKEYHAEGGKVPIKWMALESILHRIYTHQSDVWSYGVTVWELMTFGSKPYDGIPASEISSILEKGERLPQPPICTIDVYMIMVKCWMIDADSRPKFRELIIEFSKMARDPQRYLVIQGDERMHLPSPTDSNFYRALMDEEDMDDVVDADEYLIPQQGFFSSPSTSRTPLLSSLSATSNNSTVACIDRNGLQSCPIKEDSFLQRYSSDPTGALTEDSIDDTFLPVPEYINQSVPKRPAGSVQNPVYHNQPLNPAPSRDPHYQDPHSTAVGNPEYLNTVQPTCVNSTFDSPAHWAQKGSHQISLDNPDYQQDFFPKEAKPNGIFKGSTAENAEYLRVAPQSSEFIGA
# method_summary: Kinase inhibition assay, EGFR L858R;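 further: truncated human EGFR L858R kinase with compound preincubation, ULight-PolyGT peptide phosphorylation read by Europium-antibody Lance detection, IC50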
# Assay type: biochemical
# condition: read-out: EGFR mutants L858R
readout_type: IC50

**Q:** Name the reported IC50 value associated with the compound "C=CC(=O)Nc1cc(Nc2nccc(-n3cc(CN(C)C)c(-c4ccoc4)n3)n2)c(OC)cc1N1CCOCC1"
**A:** < 20 nM

**Q:** What about "C=CC(=O)Nc1cc(Nc2ncc(C)c(-n3cc(CN(C)C)c(C4CC4)n3)n2)c(OC)cc1N1CCOCC1" ?
**A:** < 20 nM

**Q:** Next entry: "C=CC(=O)Nc1cc(Nc2ncc(C)c(-n3cc(CN4CC(O)C4)c(C)n3)n2)c(OC)cc1N1CCCCC1"
**A:** < 20 nM

**Q:** // same read-out, input: "C=CC(=O)Nc1cc(Nc2nccc(-n3cc(CN4CCC4)cn3)n2)c(OC)cc1N(C)C"
**A:** < 20 nM

**Q:** Could you do the same for "C=CC(=O)Nc1cc(Nc2nccc(-n3cc(CN4CCC4)c(C)n3)n2)c(OC)cc1N1CCC(F)(F)CC1" , please?
**A:** 20 to 200 nM

**Q:** Same thing, different compound: "C=CC(=O)Nc1cc(Nc2nccc(-n3cc(CN(C)C)c(-c4ccccc4)n3)n2)c(OC)cc1N(C)CCOC"
**A:** < 20 nM

**Q:** Quick one: "C=CC(=O)Nc1cc(Nc2nccc(-n3cc(CN(C)C)c(C4CC4)n3)n2)c(OC)cc1N(C)C1COC1"
**A:** < 20 nM

**Q:** Moving on to the next compound: Cc1cc(Nc2nccc(-n3cc(CN4CC(O)C4)c(C4CC4)n3)n2)cc(C)c1OCCO [Compound 151, reference compound]
**A:** 20 to 200 nM

**Q:** Now the same for "C=CC(=O)Nc1cc(Nc2ncc(F)c(-n3cc(CN(C)C)c(-c4ccoc4)c3)n2)c(OC)cc1N1CCOCC1"
**A:** < 20 nM

**Q:** Now consider "C=CC(=O)Nc1cc(Nc2nccc(-n3cc(CN4C[C@H](O)[C@H](OC)C4)c(C)n3)n2)c(OC)cc1N1CCOCC1" and answer again.
**A:** 20 to 200 nM

**Q:** Input "C=CC(=O)Nc1cc(Nc2nccc(-n3cc(CN(C)C)c(C)n3)n2)c(OC)cc1N(C)C"
**A:** < 20 nM

**Q:** Same question for "C=CC(=O)Nc1cc(Nc2nccc(-n3nc(C)c(CN4CCC4)c3C)n2)c(OC)cc1N1CCOCC1" please.
**A:** 20 to 200 nM

====

Items are presented alongside their recorded pIC50.
# target_or_test_system: EGFR mutant L858R/T790M (Homo sapiens, UniProt P00533, L858R/T790M)
# Construct: truncated human JAK3, EGFR mutants such as del E746-A750; purchased Carna Biosciences
# Sequence (P00533 669-1210 T790M/L858R limits assumed): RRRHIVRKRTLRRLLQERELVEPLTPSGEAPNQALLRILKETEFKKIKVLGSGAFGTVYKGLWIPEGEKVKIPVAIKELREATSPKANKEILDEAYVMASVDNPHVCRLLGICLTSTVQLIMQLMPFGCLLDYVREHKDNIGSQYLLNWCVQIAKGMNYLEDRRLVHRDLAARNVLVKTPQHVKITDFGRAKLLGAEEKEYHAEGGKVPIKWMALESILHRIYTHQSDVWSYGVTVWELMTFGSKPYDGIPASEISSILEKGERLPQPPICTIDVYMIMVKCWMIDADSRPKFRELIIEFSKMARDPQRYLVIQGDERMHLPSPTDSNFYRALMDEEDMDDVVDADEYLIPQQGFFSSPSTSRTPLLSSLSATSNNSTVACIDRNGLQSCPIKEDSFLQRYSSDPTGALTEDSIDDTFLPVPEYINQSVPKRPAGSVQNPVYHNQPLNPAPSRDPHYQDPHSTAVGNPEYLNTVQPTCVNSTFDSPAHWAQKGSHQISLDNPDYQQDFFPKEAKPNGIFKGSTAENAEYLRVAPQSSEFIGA
# method_summary: Kinase inhibition assay, EGFR L858R/T790M;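 further: truncated human enzyme preincubated two hours with compound, then one hour with one millimolar ATP and ULight-PolyGT peptide, Europium-labeled antibody detection, IC50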
# Format: biochemical
# condition: read-out: EGFR mutants L858R/T790M
pIC50: −log10 of the molar value.

Sample records with pIC50:
smi: C=CC(=O)Nc1cc(Nc2nccc(-n3cc(CN(C)C)c(C4CC4)n3)n2)c(OC)cc1N1CCN(C(C)=O)CC1
data_value: > 7.70
--
smi: C=CC(=O)Nc1cc(Nc2nccc(-n3cc(CN4CCC4)c(C)n3)n2)c(OC)cc1N1CCN(C)CC1
data_value: > 7.70
--
smi: C=CC(=O)Nc1cc(Nc2nccc(-n3cc(CN4CCC4)c(-c4ccc(C)cc4)n3)n2)c(OC)cc1N1CCOCC1
data_value: > 7.70
--
smi: C=CC(=O)Nc1cc(Nc2nccc(-n3cc(CN(C)C)c(C(C)(C)C)n3)n2)c(OC)cc1N(C)CCOC
data_value: > 7.70
--
smi: C=CC(=O)Nc1cc(Nc2nccc(-n3cc(CN(C)C)c(-c4cccs4)n3)n2)c(OC)cc1N1CCOCC1
data_value: > 7.70

Now for a further compound.
**Q:** Report pIC50 for "C=CC(=O)Nc1cc(Nc2ncc(C)c(-n3cc(CN4CCOCC4)cn3)n2)c(OC)cc1N1CCN(C)CC1" please.
**A:** 6.70 to 7.70
